Source of measurements: paper PMC9469100

molecular target: PRMT4 (Homo sapiens); assay: Radioisotope-based filter-binding (HotSpot) assay, PRMT4; settings: IC50 PRMT4 (Figure 5 heatmap), radioisotope-based filter assay
Sequence (Q86X55 2-608): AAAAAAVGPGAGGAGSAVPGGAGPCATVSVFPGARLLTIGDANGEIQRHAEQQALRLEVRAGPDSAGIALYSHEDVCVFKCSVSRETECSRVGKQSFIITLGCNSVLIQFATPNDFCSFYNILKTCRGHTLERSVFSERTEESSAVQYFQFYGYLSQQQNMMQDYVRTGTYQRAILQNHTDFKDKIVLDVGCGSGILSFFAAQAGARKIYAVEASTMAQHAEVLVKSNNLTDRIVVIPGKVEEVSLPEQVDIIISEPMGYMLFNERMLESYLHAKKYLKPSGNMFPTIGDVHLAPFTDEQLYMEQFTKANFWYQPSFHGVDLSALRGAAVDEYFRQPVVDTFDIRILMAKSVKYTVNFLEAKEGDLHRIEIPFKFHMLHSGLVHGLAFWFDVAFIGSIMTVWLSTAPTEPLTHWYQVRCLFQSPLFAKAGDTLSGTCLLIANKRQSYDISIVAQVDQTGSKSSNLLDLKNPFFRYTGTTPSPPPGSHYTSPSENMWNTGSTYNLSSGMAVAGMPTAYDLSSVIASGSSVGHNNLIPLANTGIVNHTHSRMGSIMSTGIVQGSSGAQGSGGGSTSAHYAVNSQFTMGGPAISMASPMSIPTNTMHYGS
Please provide measured IC50 for the entries that follow.
Give the quantity in nM, number only.

Input line: Let me know recorded IC50 for COC(=O)c1cc(O)c2cc(NC(=O)NCCCCNC(=N)NC/C=C/[C@H]3O[C@@H](n4cnc5c(N)ncnc54)[C@H](O)[C@@H]3O)ccc2c1 [12h] , thanks.
Output line: 3

Input line: Find the measured IC50 of COC(=O)c1cc(O)c2cc(NC(=O)NCCCCCCNC(=N)NC[C@H]3O[C@@H](n4cnc5c(N)ncnc54)[C@H](O)[C@@H]3O)ccc2c1 [12d] and report it.
Output line: 61
